protocol: Plasma stability, human plasma
Type: in vitro ADME
Non-standard residues stand in square brackets, D forms with d. Residues, ends and D or L forms follow the SMILES beside them. hSer = N[C@@H](CCO)C(=O)O; Dab = NCC[C@H](N)C(=O)O

compound	valueUnits	Stability human Plasma t1/2
CC[C@H](C)[C@@H]1NC(=O)[C@H](Cc2c[nH]c3ccccc23)NC(=O)[C@H]([C@@H](C)O)NC(=O)[C@@H]2CCCN2C(=O)[C@H]2CCCN2C(=O)[C@H](CCN)NC(=O)[C@H](CCO)NC(=O)[C@H](CCN)NC(=O)[C@H](CCN)NC(=O)[C@H](Cc2c[nH]c3ccccc23)NC(=O)[C@H](CCN)NC(=O)[C@H](CCN)NC(=O)[C@H](CCCCN)NC(=O)[C@H](CCN)NC1=O [Example 35] (cyclo(TWI[Dab]K[Dab][Dab]W[Dab][Dab][hSer][Dab][dP]P))	h	5

====

Tested on: human red blood cells (hRBC)
protocol: Hemolysis
Type: cell-based
recordedConditions: 100
Non-standard residues stand in square brackets, D forms with d. Residues, ends and D or L forms follow the SMILES beside them. Dab = NCC[C@H](N)C(=O)O
// reported Hemolysis at 100 μg/ml per item

compound	Hemolysis at 100 μg/ml
CC[C@H](C)[C@@H]1NC(=O)[C@H](Cc2c[nH]c3ccccc23)NC(=O)[C@H]([C@@H](C)O)NC(=O)[C@@H]2CCCN2C(=O)[C@H]2CCCN2C(=O)[C@H](CCN)NC(=O)[C@H](C)NC(=O)[C@H](CCN)NC(=O)[C@H](CCN)NC(=O)[C@H](Cc2c[nH]c3ccccc23)NC(=O)[C@H](CCN)NC(=O)[C@H](CCN)NC(=O)[C@H](CCCCN)NC(=O)[C@H](CCN)NC1=O [Example 1] (cyclo(TWI[Dab]K[Dab][Dab]W[Dab][Dab]A[Dab][dP]P))	0.5%
CC[C@H](C)[C@@H]1NC(=O)[C@H](Cc2c[nH]c3ccccc23)NC(=O)[C@H]([C@@H](C)O)NC(=O)[C@@H]2CCCN2C(=O)[C@H]2CCCN2C(=O)[C@H](CCN)NC(=O)CNC(=O)[C@H](CCN)NC(=O)[C@H](CCN)NC(=O)[C@H](Cc2c[nH]c3ccccc23)NC(=O)[C@H](CCN)NC(=O)[C@H](CCN)NC(=O)[C@H](CCCCN)NC(=O)[C@H](CCN)NC1=O [Example 2] (cyclo(TWI[Dab]K[Dab][Dab]W[Dab][Dab]G[Dab][dP]P))	0.3%
CC[C@H](C)[C@@H]1NC(=O)[C@H](Cc2c[nH]c3ccccc23)NC(=O)[C@H]([C@@H](C)O)NC(=O)[C@@H]2CCCN2C(=O)[C@H]2CCCN2C(=O)[C@H](CCC(N)=O)NC(=O)[C@H](C)NC(=O)[C@H](CCN)NC(=O)[C@H](CCN)NC(=O)[C@H](Cc2c[nH]c3ccccc23)NC(=O)[C@H](CCN)NC(=O)[C@H](CCN)NC(=O)[C@H](CCCCN)NC(=O)[C@H](CCC(N)=O)NC1=O [Example 40] (cyclo(TWIQK[Dab][Dab]W[Dab][Dab]AQ[dP]P))	0.7%
CC[C@H](C)[C@@H]1NC(=O)[C@H](Cc2c[nH]c3ccccc23)NC(=O)[C@H]([C@@H](C)O)NC(=O)[C@@H]2CCCN2C(=O)[C@H]2CCCN2C(=O)[C@H](CCN)NC(=O)[C@H]([C@@H](C)O)NC(=O)[C@H](CCN)NC(=O)[C@H](CCN)NC(=O)[C@H](Cc2c[nH]c3ccccc23)NC(=O)[C@H](CCN)NC(=O)[C@H](CCN)NC(=O)[C@H](CCCCN)NC(=O)[C@H](CCN)NC1=O [Example 16] (cyclo(TWI[Dab]K[Dab][Dab]W[Dab][Dab]T[Dab][dP]P))	0.1%
CC[C@H](C)[C@@H]1NC(=O)[C@H](Cc2c[nH]c3ccccc23)NC(=O)[C@H]([C@@H](C)O)NC(=O)[C@@H]2CCCN2C(=O)[C@H]2CCCN2C(=O)[C@H](CCN)NC(=O)[C@@H](C(C)C)NC(=O)[C@H](CCN)NC(=O)[C@H](CCN)NC(=O)[C@H](Cc2c[nH]c3ccccc23)NC(=O)[C@H](CCN)NC(=O)[C@H](CCN)NC(=O)[C@H](CCCCN)NC(=O)[C@H](CCN)NC1=O [Example 4] (cyclo(TWI[Dab]K[Dab][Dab]W[Dab][Dab][dV][Dab][dP]P))	0.6%

====

Test system: Pseudomonas aeruginosa IMP 1 Livermore 3140
Format: cell-based
recordedConditions: IMP 1 Livermore 3140
Non-standard residues stand in square brackets, D forms with d. Residues, ends and D or L forms follow the SMILES beside them. Nle = CCCC[C@H](N)C(=O)O; Dab = NCC[C@H](N)C(=O)O

molecule	testSystem	MIC P. aeruginosa IMP1 Livermore 3140 (µg/mL)
CC(C)[C@@H]1NC(=O)[C@H](Cc2c[nH]c3ccccc23)NC(=O)[C@H]([C@@H](C)O)NC(=O)[C@@H]2CCCN2C(=O)[C@H]2CCCN2C(=O)[C@H](CCN)NC(=O)[C@H](C)NC(=O)[C@H](CCN)NC(=O)[C@H](CCN)NC(=O)[C@H](Cc2c[nH]c3ccccc23)NC(=O)[C@H](CCN)NC(=O)[C@H](CCN)NC(=O)[C@H](CCCCN)NC(=O)[C@H](CCN)NC1=O [Example 32] (cyclo(TWV[Dab]K[Dab][Dab]W[Dab][Dab]A[Dab][dP]P))	Pseudomonas aeruginosa IMP 1 Livermore 3140	0.22
CC[C@H](C)[C@@H]1NC(=O)[C@H](Cc2c[nH]c3ccccc23)NC(=O)[C@H]([C@@H](C)O)NC(=O)[C@@H]2CCCN2C(=O)[C@H]2CCCN2C(=O)[C@H](CCN)NC(=O)[C@H](CCC(N)=O)NC(=O)[C@H](CCN)NC(=O)[C@H](CCN)NC(=O)[C@H](Cc2c[nH]c3ccccc23)NC(=O)[C@H](CCN)NC(=O)[C@H](CCN)NC(=O)[C@H](CCCCN)NC(=O)[C@H](CCN)NC1=O [Example 13] (cyclo(TWI[Dab]K[Dab][Dab]W[Dab][Dab]Q[Dab][dP]P))	Pseudomonas aeruginosa IMP 1 Livermore 3140	0.75
CC[C@H](C)[C@@H]1NC(=O)[C@H](Cc2c[nH]c3ccccc23)NC(=O)[C@H](C)NC(=O)[C@@H]2CCCN2C(=O)[C@H]2CCCN2C(=O)[C@H](CCN)NC(=O)[C@H](C)NC(=O)[C@H](CCN)NC(=O)[C@H](CCN)NC(=O)[C@H](Cc2c[nH]c3ccccc23)NC(=O)[C@H](CCN)NC(=O)[C@H](CCN)NC(=O)[C@H](CCCCN)NC(=O)[C@H](CCN)NC1=O [Example 22] (cyclo(AWI[Dab]K[Dab][Dab]W[Dab][Dab]A[Dab][dP]P))	Pseudomonas aeruginosa IMP 1 Livermore 3140	0.24
CCCC[C@@H]1NC(=O)[C@H](Cc2c[nH]c3ccccc23)NC(=O)[C@H]([C@@H](C)O)NC(=O)[C@@H]2CCCN2C(=O)[C@H]2CCCN2C(=O)[C@H](CCN)NC(=O)[C@H](C)NC(=O)[C@H](CCN)NC(=O)[C@H](CCN)NC(=O)[C@H](Cc2c[nH]c3ccccc23)NC(=O)[C@H](CCN)NC(=O)[C@H](CCN)NC(=O)[C@H](CCCCN)NC(=O)[C@H](CCN)NC1=O [Example 31] (cyclo(TW[Nle][Dab]K[Dab][Dab]W[Dab][Dab]A[Dab][dP]P))	Pseudomonas aeruginosa IMP 1 Livermore 3140	0.24
CC[C@H](C)[C@@H]1NC(=O)[C@H](Cc2c[nH]c3ccccc23)NC(=O)[C@H]([C@@H](C)O)NC(=O)[C@@H]2CCCN2C(=O)[C@H]2CCCN2C(=O)[C@H](CCC(N)=O)NC(=O)[C@H](C)NC(=O)[C@H](CCN)NC(=O)[C@H](CCN)NC(=O)[C@H](Cc2c[nH]c3ccccc23)NC(=O)[C@H](CCN)NC(=O)[C@H](CCN)NC(=O)[C@H](CCCCN)NC(=O)[C@H](CCC(N)=O)NC1=O [Example 40] (cyclo(TWIQK[Dab][Dab]W[Dab][Dab]AQ[dP]P))	Pseudomonas aeruginosa IMP 1 Livermore 3140	1.00

====

System: Pseudomonas aeruginosa IMP 1 Livermore 3140
Type: cell-based
recordedConditions: IMP 1 Livermore 3140
Procedure: The selective antimicrobial activities of the peptides were determined in 96-well plates (Nunclon polystyrene) by the standard NCCLS broth microdilution method (see ref 1, below) with slight modifications. Innocula of the microorganisms were diluted into Mueller-Hinton (MH) broth+0.02% BSA and compared with a 0.5 Mcfarland standard to give appr. 10^6 colony forming units (CFU)/ml. […]
Non-standard residues stand in square brackets, D forms with d. Residues, ends and D or L forms follow the SMILES beside them. dDab = NCC[C@@H](N)C(=O)O; Dab = NCC[C@H](N)C(=O)O; Aib = CC(C)(N)C(=O)O
propertyLabel: MIC P. aeruginosa IMP1 Livermore 3140 (µg/mL)

compound	cmp	measuredValue
CC[C@H](C)[C@@H]1NC(=O)[C@H](Cc2c[nH]c3ccccc23)NC(=O)[C@H]([C@@H](C)O)NC(=O)[C@@H]2CCCN2C(=O)[C@H]2CCCN2C(=O)[C@H](CCN)NC(=O)[C@@H](C)NC(=O)[C@H](CCN)NC(=O)[C@H](CCN)NC(=O)[C@H](Cc2c[nH]c3ccccc23)NC(=O)[C@H](CCN)NC(=O)[C@H](CCN)NC(=O)[C@H](CCCCN)NC(=O)[C@H](CCN)NC1=O [Example 3] (cyclo(TWI[Dab]K[Dab][Dab]W[Dab][Dab][dA][Dab][dP]P))	=	2.0
CC[C@H](C)[C@@H]1NC(=O)[C@H](Cc2c[nH]c3ccccc23)NC(=O)[C@H]([C@@H](C)O)NC(=O)[C@@H]2CCCN2C(=O)[C@H]2CCCN2C(=O)[C@H](CCN)NC(=O)[C@H](CC(C)C)NC(=O)[C@H](CCN)NC(=O)[C@H](CCN)NC(=O)[C@H](Cc2c[nH]c3ccccc23)NC(=O)[C@H](CCN)NC(=O)[C@H](CCN)NC(=O)[C@H](CCCCN)NC(=O)[C@H](CCN)NC1=O [Example 7] (cyclo(TWI[Dab]K[Dab][Dab]W[Dab][Dab]L[Dab][dP]P))	>	2
CC[C@H](C)[C@@H]1NC(=O)[C@H](Cc2c[nH]c3ccccc23)NC(=O)[C@H](CCC(=O)O)NC(=O)[C@@H]2CCCN2C(=O)[C@H]2CCCN2C(=O)[C@H](CCC(N)=O)NC(=O)[C@H](C)NC(=O)[C@H](CCN)NC(=O)[C@H](CCN)NC(=O)[C@H](Cc2c[nH]c3ccccc23)NC(=O)[C@H](CCN)NC(=O)[C@@H](CCN)NC(=O)[C@H](CCCCN)NC(=O)[C@H](CCN)NC1=O [Example 45] (cyclo(EWI[Dab]K[dDab][Dab]W[Dab][Dab]AQ[dP]P))	=	1.00
CC[C@H](C)[C@@H]1NC(=O)[C@H](Cc2ccc(O)cc2)NC(=O)[C@H]([C@@H](C)O)NC(=O)[C@@H]2CCCN2C(=O)[C@H]2CCCN2C(=O)[C@H](CCN)NC(=O)[C@H](C)NC(=O)[C@H](CCN)NC(=O)[C@H](CCN)NC(=O)[C@H](Cc2c[nH]c3ccccc23)NC(=O)[C@H](CCN)NC(=O)[C@H](CCN)NC(=O)[C@H](CCCCN)NC(=O)[C@H](CCN)NC1=O [Example 19] (cyclo(TYI[Dab]K[Dab][Dab]W[Dab][Dab]A[Dab][dP]P))	=	0.10
CC[C@H](C)[C@@H]1NC(=O)[C@H](Cc2c[nH]c3ccccc23)NC(=O)[C@H]([C@@H](C)O)NC(=O)[C@@H]2CCCN2C(=O)[C@H]2CCCN2C(=O)[C@H](CCN)NC(=O)C(C)(C)NC(=O)[C@H](CCN)NC(=O)[C@H](CCN)NC(=O)[C@H](Cc2c[nH]c3ccccc23)NC(=O)[C@H](CCN)NC(=O)[C@H](CCN)NC(=O)[C@H](CCCCN)NC(=O)[C@H](CCN)NC1=O [Example 5] (cyclo(TWI[Dab]K[Dab][Dab]W[Dab][Dab][Aib][Dab][dP]P))	=	0.75

Cited source: patent US9521846B2
